Hello, the source for this data is patent US20250340659A1, in case you need it.

Target: T1, canine OX40L, full length membrane form, expressed on HEK293 cells (canine)
T1 chain: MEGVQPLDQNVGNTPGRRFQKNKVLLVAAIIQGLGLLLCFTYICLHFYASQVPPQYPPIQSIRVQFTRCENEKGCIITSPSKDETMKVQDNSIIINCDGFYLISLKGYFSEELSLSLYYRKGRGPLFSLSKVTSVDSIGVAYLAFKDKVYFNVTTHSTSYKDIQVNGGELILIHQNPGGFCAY
Experiment: cell-based or functional assay
This listing pairs binders with measured % Signal Inhibition Rep2.
The reply should contain only the number, in %.

* PMX042 (antibody, V domains shown, also called PMX42) VH: EVQLVESGGDLVKPGGSLRLSCVASGFTFSSYHMSWVRQAPGKGLQWVAYITSGGSTTSYADAVKGRFTISRDNAKNTLYLQMDSLRADDTAVYYCASDLVLLLGGADYWGQGTLVTVSS VL: SYELTQPPSVNVTLRETAHITCGGDSIGRKYVQWIQQHPGQAPVVIIYKDYNRPTGIPERFSGANSGNTATLTISGALAEDEADYYCQVGDSGTKAVFGGGTHLTVL | 87.5

// query Give % Signal Inhibition Rep2 for PMX108 (antibody, V domains shown) VH: EVQLVESGGDLVRPGGSLRLSCVASGFTFTNYHMSWVRQAPGKGLQWVAFINSGGSSTTYTDVVRGRFTISRDYAKNTLYLQMNSLTAEDTAVYYCASGAIWTHFDHWGQGTLVTVSS VL: SFVLTQLPSVSVTLRQTARITCGGDSVGSKSVYWYQQKLGQAPVLIIYRDSNRPTGIPERFSGASSGNTATLTISGALAEDEADYYCQVWDNSNKAIFGGGTHLTVL
// result 89.8

// query Supply recorded % Signal Inhibition Rep2 for PMX111 (antibody, V domains shown) VH: EVQLVESGGDLVRPGGSLRLSCVASGFTFSSYHMNWVRQAPGKGLQWVAFINSGASSATYADVVRGRFTISRDYAKNTLYLQMNSLRAEDTAVYYCASGSIWTHFDFWGQGTLVTVSS VL: SFVLTQLPSVSVTLRQTARITCGGDSVGSKSVYWYQQKLGQAPVLIIYRDSNRPTGIPERFSGASSGNTATLTISGALAEDEADYYCQVWDNSNKAMFGGGTHLTVL here.
// result 37.4
